# DC50 per entry
Target: EGFR L858R-T790M (Homo sapiens, UniProt P00533, L858R/T790M)
Construct: NCI-H1975 (harboring EGFR heterozygous L858R-T790M mutations); host or cells: NCI-H1975
Sequence (P00533 25-1210 T790M/L858R): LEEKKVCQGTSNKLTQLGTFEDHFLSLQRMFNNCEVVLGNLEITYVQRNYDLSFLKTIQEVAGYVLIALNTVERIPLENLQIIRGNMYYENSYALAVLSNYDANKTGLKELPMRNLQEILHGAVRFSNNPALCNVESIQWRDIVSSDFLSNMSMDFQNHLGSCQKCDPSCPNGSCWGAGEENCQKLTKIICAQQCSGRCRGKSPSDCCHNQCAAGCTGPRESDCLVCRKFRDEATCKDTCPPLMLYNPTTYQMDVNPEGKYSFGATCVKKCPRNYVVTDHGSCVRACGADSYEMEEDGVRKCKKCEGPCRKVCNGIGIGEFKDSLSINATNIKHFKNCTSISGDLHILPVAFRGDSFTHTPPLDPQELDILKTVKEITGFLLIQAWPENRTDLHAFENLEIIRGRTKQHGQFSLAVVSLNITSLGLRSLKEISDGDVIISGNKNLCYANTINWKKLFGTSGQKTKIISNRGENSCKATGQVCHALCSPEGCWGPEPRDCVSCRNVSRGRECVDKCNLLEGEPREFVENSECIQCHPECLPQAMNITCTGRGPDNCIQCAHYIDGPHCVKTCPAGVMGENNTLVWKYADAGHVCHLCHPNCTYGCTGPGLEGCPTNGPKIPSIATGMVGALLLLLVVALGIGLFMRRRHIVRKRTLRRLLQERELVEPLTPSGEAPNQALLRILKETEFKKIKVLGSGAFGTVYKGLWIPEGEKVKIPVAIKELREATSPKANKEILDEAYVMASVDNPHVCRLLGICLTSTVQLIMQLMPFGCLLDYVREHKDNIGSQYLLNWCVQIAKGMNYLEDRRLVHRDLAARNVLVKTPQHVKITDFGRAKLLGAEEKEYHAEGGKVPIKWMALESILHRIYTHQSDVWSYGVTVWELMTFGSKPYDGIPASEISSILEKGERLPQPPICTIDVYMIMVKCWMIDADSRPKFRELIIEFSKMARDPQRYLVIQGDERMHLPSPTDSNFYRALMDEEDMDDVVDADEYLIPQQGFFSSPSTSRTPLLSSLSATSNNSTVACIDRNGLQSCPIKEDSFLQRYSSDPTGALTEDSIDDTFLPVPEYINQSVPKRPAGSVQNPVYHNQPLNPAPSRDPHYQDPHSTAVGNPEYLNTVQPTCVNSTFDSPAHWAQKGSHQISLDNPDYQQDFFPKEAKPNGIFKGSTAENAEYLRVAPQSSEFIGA
Assay: EGFR degradation, Total EGFR (L858R-specific) HTRF, NCI-H1975
Assay type: cell-based
Conditions: Table 9B; NCI-H1975 cells, 6 hours, Total EGFR HTRF; read-out: H1975 EGFR DC50

compound	DC50
O=C1CCC(Nc2ccc(N3CCC(O)(CC(=O)N4CC5(C4)CN(c4ccc(-c6ccc7cn(C(C(=O)Nc8nccs8)c8ncn9c8CCC9)nc7c6F)cn4)C5)CC3)c(F)c2)C(=O)N1 (stereo not drawn) [Compound 74]	< 50 nM

QUERY: Tell me measured DC50 for O=C1CCC(Nc2ccc(N3CCC(O)(CC(=O)N4CC5(CCN(c6ccc(-c7cc(F)c8c(c7)C(=O)N(C(C(=O)Nc7nccs7)c7ncn9c7CCC9)C8)cc6)CC5)C4)CC3)c(Cl)c2)C(=O)N1 (single isomer, unassigned; isomer 1) [Compound 128] please.
RESULT: < 50 nM

QUERY: Tell me measured DC50 for Cn1nc(N2CCC(=O)NC2=O)c2ccc(C3CCN(CC(=O)N4CC5(C4)CN(c4ccc(-c6cc(F)c7c(c6)C(=O)N(C(C(=O)Nc6nccs6)c6ncn8c6C[C@@H](F)C8)C7)cc4)C5)CC3(F)F)cc21 (stereo partly drawn) [Compound 116] please.
RESULT: < 50 nM

QUERY: Tell me measured DC50 for Cn1nc(N2CCC(=O)NC2=O)c2cc(F)c(N3CCN(CC(=O)N4CC5(C4)CN(c4ccc(-c6cc(F)c7c(c6)C(=O)N(C(C(=O)Nc6nccs6)c6ncn8c6CCC8)C7)cc4)C5)CC3)cc21 (stereo not drawn) [Compound 123] please.
RESULT: < 50 nM

QUERY: Tell me measured DC50 for C[C@@H]1CC(O)(CC(=O)N2CC3(C2)CN(c2ccc(-c4cc(F)c5c(c4)C(=O)N(C(C(=O)Nc4nccs4)c4ncn6c4CCC6)C5)cc2)C3)C[C@H](C)N1c1ccc(NC2CCC(=O)NC2=O)cc1F (stereo partly drawn) [Compound 161] please.
RESULT: < 50 nM

###

Target: pY1068 EGFR L858R-T790M-C797S (Homo sapiens, UniProt P00533, C797S/L858R/T790M)
Construct: generated using CRISPR technology to introduce the additional C797S mutation by Horizon Discovery
Sequence (P00533 25-1210 T790M/C797S/L858R): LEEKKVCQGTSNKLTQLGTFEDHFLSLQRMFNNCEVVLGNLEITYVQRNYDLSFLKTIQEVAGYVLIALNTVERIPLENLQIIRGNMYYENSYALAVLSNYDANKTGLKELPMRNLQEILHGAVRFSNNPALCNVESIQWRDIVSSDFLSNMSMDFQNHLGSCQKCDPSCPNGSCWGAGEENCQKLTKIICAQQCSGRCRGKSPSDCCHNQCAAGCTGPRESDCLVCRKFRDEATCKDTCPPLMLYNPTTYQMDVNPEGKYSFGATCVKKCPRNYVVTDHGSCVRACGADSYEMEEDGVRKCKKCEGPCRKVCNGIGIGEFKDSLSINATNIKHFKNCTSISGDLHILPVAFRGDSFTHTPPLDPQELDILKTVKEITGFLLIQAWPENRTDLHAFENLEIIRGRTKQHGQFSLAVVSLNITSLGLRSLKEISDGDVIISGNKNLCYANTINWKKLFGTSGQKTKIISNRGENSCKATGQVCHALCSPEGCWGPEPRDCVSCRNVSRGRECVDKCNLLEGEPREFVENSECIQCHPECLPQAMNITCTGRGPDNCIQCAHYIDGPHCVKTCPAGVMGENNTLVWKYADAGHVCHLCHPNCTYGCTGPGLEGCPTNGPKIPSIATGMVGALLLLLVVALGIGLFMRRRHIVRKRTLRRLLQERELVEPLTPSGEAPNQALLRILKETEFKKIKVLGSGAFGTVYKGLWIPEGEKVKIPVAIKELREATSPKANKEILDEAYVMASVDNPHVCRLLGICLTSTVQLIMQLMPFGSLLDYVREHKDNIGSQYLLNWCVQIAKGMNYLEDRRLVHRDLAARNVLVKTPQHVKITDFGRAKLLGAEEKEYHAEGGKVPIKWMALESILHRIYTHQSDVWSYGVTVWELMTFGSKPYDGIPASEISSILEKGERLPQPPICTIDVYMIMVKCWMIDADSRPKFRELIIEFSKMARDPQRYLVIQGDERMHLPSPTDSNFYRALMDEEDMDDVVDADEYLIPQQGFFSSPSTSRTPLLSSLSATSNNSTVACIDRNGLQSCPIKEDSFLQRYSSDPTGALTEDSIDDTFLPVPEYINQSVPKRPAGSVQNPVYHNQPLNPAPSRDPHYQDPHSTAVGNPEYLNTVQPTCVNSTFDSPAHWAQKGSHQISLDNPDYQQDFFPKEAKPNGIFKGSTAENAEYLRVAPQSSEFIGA
Assay: Phospho-EGFR (pY1068) inhibition HTRF, NCI-H1975+CS
Settings: 6 hours, read-out: pEGFR IC50
pIC50: −log10 of the molar value.
property-name: pIC50

compound	property-name	endpoint-value
Cn1nc(N2CCC(=O)NC2=O)c2ccc(C3CCN(CC(=O)N4CC5(C4)CN(c4ccc(-c6cc(F)c7c(c6)C(=O)N(C(C(=O)Nc6ccccn6)c6ncn8c6CCC8)C7)cc4)C5)CC3(F)F)cc21 (centres unmarked)	pIC50	7.66
Cn1nc(N2CCC(=O)NC2=O)c2ccc([C@H]3CCN(CC(=O)N4CC5(C4)CN(c4ccc(-c6cc(F)c7c(c6)C(=O)N(C(C(=O)Nc6nccs6)c6ncn8c6CCC8)C7)cc4)C5)CC3(F)F)cc21 (some centres unmarked)	pIC50	7.54
Cn1nc(N2CCC(=O)NC2=O)c2ccc(C3CCN(CC(=O)N4CC5(C4)CN(c4ccc(-c6cc(F)c7c(c6)C(=O)N(C(C(=O)Nc6nccs6)c6ncn8c6CCC8)C7)cc4)C5)CC3(F)F)cc21 (centres unmarked)	pIC50	7.72
O=C1CCC(Nc2ccc(C3CCN(CC(=O)N4CC5(C4)CN(c4ccc(-c6cc(F)c7c(c6)C(=O)N(C(C(=O)Nc6nccs6)c6ncn8c6CCC8)C7)cc4)C5)CC3(F)F)cc2)C(=O)N1 (single isomer, unassigned)	pIC50	7.66
O=C1CC[C@H](Nc2ccc(N3CCC(O)(CC(=O)N4CC5(C4)CN(c4ccc(-c6cc(F)c7c(c6)C(=O)N(C(C(=O)Nc6nccs6)c6ncn8c6CCC8)C7)cc4)C5)CC3)c(F)c2)C(=O)N1 (some centres unmarked)	pIC50	8.00

###

Molecular target: EGFR L858R-T790M (Homo sapiens, UniProt P00533, L858R/T790M)
Construct: NCI-H1975 (harboring EGFR heterozygous L858R-T790M mutations); host or cells: NCI-H1975
Test: EGFR degradation, Total EGFR (L858R-specific) HTRF, NCI-H1975
Type: cell-based
Details: Table 9B; NCI-H1975 cells, 6 hours, Total EGFR HTRF; read-out: H1975 EGFR DC50
Method: NCI-H1975 (harboring EGFR heterozygous L858R-T790M mutations) and NCI-H3255 (harboring EGFR heterozygous L858R mutation) were purchased from ATCC and NCI, respectively. […] Degradation of EGFR protein containing L858R mutation or wild-type was determined based on quantification of FRET signal using a Total EGFR (L858R-specific or pan-EGFR detecting) HTRF assay kit. Phospho-EGFR (pEGFR) inhibition was determined based on quantification of FRET signal using a pY1068 EGFR HTRF assay kit. […]
# DC50 per entry

compound	assay-target	DC50
NC1(CC(=O)N2CC3(C2)CN(c2ccc(-c4cc(F)c5c(c4)C(=O)N(C(C(=O)Nc4nccs4)c4ncn6c4CCC6)C5)cc2)C3)CCN(c2ccc(NC3CCC(=O)NC3=O)cc2F)CC1 (stereo not drawn)	EGFR L858R-T790M (Homo sapiens, UniProt P00533, L858R/T790M)	< 50 nM
Cc1cc(C2CCN(C(=O)CN3CCC(c4ccc(NC5CCC(=O)NC5=O)cc4)CC3)CC2)ccc1-c1cc(F)c2c(c1)C(=O)N(C(C(=O)Nc1nccs1)c1ncn3c1CCC3)C2 (stereo not drawn)	EGFR L858R-T790M (Homo sapiens, UniProt P00533, L858R/T790M)	50 to 150 nM

QUERY: # return DC50 of O=C1CCC(Nc2ccc(C3CCN(CC(=O)N4CCC(NC(=O)c5ccc(C#Cc6cc(F)c7c(c6)C(=O)N(C(C(=O)Nc6nccs6)c6ncn8c6CCC8)C7)cn5)CC4)CC3)cc2)C(=O)N1 (stereo not drawn) (system: EGFR L858R-T790M (Homo sapiens, UniProt P00533, L858R/T790M))
RESULT: < 50 nM

###

Target: EGFR L858R-T790M (Homo sapiens, UniProt P00533, L858R/T790M)
Construct: NCI-H1975 (harboring EGFR heterozygous L858R-T790M mutations); host or cells: NCI-H1975
Test: EGFR degradation, Total EGFR (L858R-specific) HTRF, NCI-H1975
Type: cell-based
Details: Table 9A; NCI-H1975 cells, 6 hours, Total EGFR HTRF; read-out: H1975 EGFR DC50
# DC50 per entry

molecule	DC50
O=C1CCC(Nc2ccc(C3CCN(CC(=O)N4CCC(Oc5ccc(-c6cc(F)c7c(c6)C(=O)N(C(C(=O)Nc6nccs6)c6ncn8c6CCC8)C7)cc5)CC4)CC3)cc2)C(=O)N1 (centres unmarked) [Compound 31]	< 50 nM
O=C1CCC(Nc2ccc(C3CCN(CC(=O)N4CCN(c5ccc(-c6cc(F)c7c(c6)C(=O)N(C(C(=O)Nc6ccccn6)c6ncn8c6CCC8)C7)cc5)CC4)CC3)c(F)c2)C(=O)N1 (centres unmarked) [Compound 20]	50 to 150 nM
O=C1CC[C@H](Nc2ccc(C3CCN(CC(=O)N4CC5(CCN(c6ccc(-c7cc(F)c8c(c7)C(=O)N(C(C(=O)Nc7nccs7)c7ncn9c7CCC9)C8)cc6)CC5)C4)CC3)c(F)c2)C(=O)N1 (some centres unmarked) [Compound 46]	50 to 150 nM
O=C1CCC(Nc2ccc(C3CCN(CC(=O)N4CCN(Cc5ccc(-c6cc(F)c7c(c6)C(=O)N(C(C(=O)Nc6nccs6)c6ncn8c6CCC8)C7)cc5)CC4)CC3)cc2)C(=O)N1 (centres unmarked) [Compound 6]	< 50 nM

Please look at the following molecule next.
QUERY: Tell me measured DC50 for O=C1NC(=O)C2(Nc3ccc(C4CCN(CC(=O)N5CCC(Oc6ccc(-c7cc(F)c8c(c7)C(=O)N(C(C(=O)Nc7nccs7)c7ncn9c7CCC9)C8)cc6)CC5)CC4)cc3)CC1C2 (centres unmarked) [Compound 38] please.
RESULT: 50 to 150 nM

###

Biological target: EGFR L858R-T790M (Homo sapiens, UniProt P00533, L858R/T790M)
Construct: NCI-H1975 (harboring EGFR heterozygous L858R-T790M mutations); host or cells: NCI-H1975
Assay: EGFR degradation, Total EGFR (L858R-specific) HTRF, NCI-H1975
Format: cell-based
Settings: Table 9B; NCI-H1975 cells, 6 hours, Total EGFR HTRF; read-out: H1975 EGFR DC50
Description: NCI-H1975 (harboring EGFR heterozygous L858R-T790M mutations) and NCI-H3255 (harboring EGFR heterozygous L858R mutation) were purchased from ATCC and NCI, respectively. […] Degradation of EGFR protein containing L858R mutation or wild-type was determined based on quantification of FRET signal using a Total EGFR (L858R-specific or pan-EGFR detecting) HTRF assay kit. Phospho-EGFR (pEGFR) inhibition was determined based on quantification of FRET signal using a pY1068 EGFR HTRF assay kit. […]
property-name: DC50

molecule	endpoint-value
Cn1nc(N2CCC(=O)NC2=O)c2ccc(C3CCN(CC(=O)N4CC5(C4)CN(c4ccc(-c6cc(F)c7c(c6)C(=O)N(C(C(=O)Nc6ccccn6)c6ncn8c6CCC8)C7)cc4)C5)C4(CC4)C3)cc21 (stereo not drawn)	50 to 150 nM
Cn1nc(N2CCC(=O)NC2=O)c2ccc(C3CCN(C(=O)CN4CC5(C4)CN(c4ccc(-c6ccc7cn(C(C(=O)Nc8nccs8)c8ncn9c8CCC9)nc7c6F)cn4)C5)CC3(F)F)cc21 (stereo not drawn)	< 50 nM

QUERY: Tell me measured DC50 for O=C1CC[C@H](Nc2ccc(N3CCC(O)(CC(=O)N4CC5(C4)CN(c4ccc(-c6cc(F)c7c(c6)C(=O)N(C(C(=O)Nc6nccs6)c6ncn8c6CCC8)C7)cn4)C5)CC3)c(F)c2)C(=O)N1 (stereo partly drawn) please.
RESULT: < 50 nM

Hello, the source for this data is patent US20240158418A1, in case you need it.
